Origin of values: patent US7820670B2

Could you please report measured IC50 for the items listed next?
# TARGET_ENTITY: ROCK 2 (Homo sapiens, UniProt O75116)
# Construct: purchased Molecular Devices, Sunnyvale, Calif
# Sequence (O75116 whole entry, species assumed): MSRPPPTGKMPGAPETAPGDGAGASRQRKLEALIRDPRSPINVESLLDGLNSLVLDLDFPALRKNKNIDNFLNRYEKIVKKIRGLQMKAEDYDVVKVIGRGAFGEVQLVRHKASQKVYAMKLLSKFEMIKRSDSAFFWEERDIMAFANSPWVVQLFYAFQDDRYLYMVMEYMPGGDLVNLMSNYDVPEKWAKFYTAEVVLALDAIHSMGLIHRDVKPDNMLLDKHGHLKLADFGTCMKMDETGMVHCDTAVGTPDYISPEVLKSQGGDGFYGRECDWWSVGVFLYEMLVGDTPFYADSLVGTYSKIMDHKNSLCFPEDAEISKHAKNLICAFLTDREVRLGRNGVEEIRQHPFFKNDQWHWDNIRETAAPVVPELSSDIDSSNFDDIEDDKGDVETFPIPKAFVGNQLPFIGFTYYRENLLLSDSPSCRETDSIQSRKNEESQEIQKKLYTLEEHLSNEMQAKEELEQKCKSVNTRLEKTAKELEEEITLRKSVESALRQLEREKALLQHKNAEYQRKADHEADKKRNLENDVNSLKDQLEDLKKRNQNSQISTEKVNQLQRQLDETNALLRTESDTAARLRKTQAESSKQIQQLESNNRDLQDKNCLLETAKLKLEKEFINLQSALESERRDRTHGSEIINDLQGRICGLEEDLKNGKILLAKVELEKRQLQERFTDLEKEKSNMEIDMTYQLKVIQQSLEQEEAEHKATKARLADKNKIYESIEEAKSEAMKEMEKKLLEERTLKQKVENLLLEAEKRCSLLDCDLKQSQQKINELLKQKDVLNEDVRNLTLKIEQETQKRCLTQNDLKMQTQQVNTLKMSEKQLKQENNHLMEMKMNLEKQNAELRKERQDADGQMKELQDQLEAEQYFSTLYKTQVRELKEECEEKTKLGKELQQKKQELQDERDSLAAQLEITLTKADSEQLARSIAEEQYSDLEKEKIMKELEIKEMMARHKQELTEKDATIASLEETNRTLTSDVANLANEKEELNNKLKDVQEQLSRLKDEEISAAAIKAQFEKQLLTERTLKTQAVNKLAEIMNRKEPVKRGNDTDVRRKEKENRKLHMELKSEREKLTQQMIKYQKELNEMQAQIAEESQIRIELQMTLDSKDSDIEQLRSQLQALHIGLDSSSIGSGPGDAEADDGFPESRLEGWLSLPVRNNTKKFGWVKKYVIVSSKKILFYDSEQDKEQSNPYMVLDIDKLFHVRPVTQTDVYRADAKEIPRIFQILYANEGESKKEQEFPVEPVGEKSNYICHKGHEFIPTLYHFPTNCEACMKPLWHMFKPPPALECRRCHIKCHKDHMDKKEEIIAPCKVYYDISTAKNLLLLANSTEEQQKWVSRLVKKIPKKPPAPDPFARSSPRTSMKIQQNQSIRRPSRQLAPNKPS
# RUN_DESCRIPTION: Rho kinase assay (IMAP ROCK-II kit, fluorescence polarization)
# Type: biochemical
# CONDITION_NOTES: substrate 200 nM, ATP 10 μM, 60 min at 23° C.
Counter-ions that a name gives are not always drawn.

(Q) Which IC50 value belongs to CCOCc1cnc2ccc(NCc3ccccn3)nn12 [Example 32, hydrochloride] ?
(A) > 100 µM

(Q) Param item: OCc1cnc2ccc(NCc3ccccn3)nn12 [Example 25, hydrochloride]
(A) > 100 µM

(Q) Okay, and Cc1cnc2ccc(NCCCN3CCOCC3)nn12 [Example 16, fumarate] ?
(A) > 100 µM
